# test_system: HDAC6 (Homo sapiens, UniProt Q9UBN7)
# Construct: purchased Sigma Aldrich or Reaction Biology Corporation
# Sequence (Q9UBN7 whole entry): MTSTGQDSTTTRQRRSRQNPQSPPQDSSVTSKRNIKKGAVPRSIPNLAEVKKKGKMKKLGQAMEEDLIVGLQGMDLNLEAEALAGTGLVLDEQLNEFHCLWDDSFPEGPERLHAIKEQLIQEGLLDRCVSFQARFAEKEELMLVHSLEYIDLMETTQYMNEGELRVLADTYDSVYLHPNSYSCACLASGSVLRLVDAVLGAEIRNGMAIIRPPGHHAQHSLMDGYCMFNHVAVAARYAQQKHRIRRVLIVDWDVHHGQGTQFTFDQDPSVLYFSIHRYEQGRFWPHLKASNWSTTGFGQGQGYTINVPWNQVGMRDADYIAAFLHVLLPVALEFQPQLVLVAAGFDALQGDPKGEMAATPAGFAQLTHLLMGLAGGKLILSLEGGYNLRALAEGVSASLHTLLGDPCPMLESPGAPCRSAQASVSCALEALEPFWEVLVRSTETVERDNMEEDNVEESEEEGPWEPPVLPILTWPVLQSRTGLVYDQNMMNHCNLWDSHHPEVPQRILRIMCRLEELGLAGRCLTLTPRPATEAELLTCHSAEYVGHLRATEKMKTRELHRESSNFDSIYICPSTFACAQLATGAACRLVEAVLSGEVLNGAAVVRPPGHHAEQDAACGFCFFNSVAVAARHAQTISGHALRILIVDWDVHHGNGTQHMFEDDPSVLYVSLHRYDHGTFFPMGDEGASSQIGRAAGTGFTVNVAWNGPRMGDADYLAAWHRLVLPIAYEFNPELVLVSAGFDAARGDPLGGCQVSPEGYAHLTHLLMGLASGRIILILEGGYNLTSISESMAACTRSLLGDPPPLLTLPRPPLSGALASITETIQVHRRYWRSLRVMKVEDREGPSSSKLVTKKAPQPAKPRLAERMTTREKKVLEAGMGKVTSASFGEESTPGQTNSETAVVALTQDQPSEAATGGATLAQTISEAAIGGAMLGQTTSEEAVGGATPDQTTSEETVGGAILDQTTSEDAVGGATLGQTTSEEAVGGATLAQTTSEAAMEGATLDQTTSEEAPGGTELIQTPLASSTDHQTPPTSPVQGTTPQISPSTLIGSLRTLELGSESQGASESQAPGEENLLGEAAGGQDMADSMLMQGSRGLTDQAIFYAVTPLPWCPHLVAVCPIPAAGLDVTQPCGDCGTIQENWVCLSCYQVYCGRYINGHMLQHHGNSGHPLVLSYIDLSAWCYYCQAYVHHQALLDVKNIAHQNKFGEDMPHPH
# experiment_summary: In vitro enzymatic assay HDAC6 (Fluor de Lys)
# Assay type: biochemical
# measurement_parameters: 100 µM; mean ± SD (n=3); read-out: HDAC6 % of inhibition at 100 µM
Listed compounds paired with reported inhibition at 100 µM
Give your result in % as a bare value.

Observe how each entry below is paired with its result.
{"sample_smiles": "CC1(C)Cc2ccccc2C2=C/C(=N/O)C(=O)N21", "readout_units": "%", "assay_result": 83.8}
{"sample_smiles": "NNC(=O)c1ccc(Cn2cc(Br)cn2)cc1", "readout_units": "%", "assay_result": 67.9}
{"sample_smiles": "NNC(=O)c1ccc(COc2ccccc2Br)cc1", "readout_units": "%", "assay_result": 69}
{"sample_smiles": "NNC(=O)c1ccc(Cn2cc(Cl)cn2)cc1", "readout_units": "%", "assay_result": 63.1}
{"sample_smiles": "Cc1nn(Cc2ccc(C(=O)NN)cc2)c(C)c1Cl", "readout_units": "%", "assay_result": 58}
{"sample_smiles": "O=C(CSc1nc2cc(Cl)c3cccnc3c2o1)c1ccc(O)c(O)c1", "readout_units": "%", "assay_result": 66.1}

Per the reported HDAC6 (Homo sapiens, UniProt Q9UBN7) data, COc1ccccc1OCc1ccc(C(=O)NN)cc1 has inhibition at 100 µM of 64.4

----------
Each entry below carries its measured IC50, system: HDAC2 (Homo sapiens).
Sequence (Q92769 whole entry): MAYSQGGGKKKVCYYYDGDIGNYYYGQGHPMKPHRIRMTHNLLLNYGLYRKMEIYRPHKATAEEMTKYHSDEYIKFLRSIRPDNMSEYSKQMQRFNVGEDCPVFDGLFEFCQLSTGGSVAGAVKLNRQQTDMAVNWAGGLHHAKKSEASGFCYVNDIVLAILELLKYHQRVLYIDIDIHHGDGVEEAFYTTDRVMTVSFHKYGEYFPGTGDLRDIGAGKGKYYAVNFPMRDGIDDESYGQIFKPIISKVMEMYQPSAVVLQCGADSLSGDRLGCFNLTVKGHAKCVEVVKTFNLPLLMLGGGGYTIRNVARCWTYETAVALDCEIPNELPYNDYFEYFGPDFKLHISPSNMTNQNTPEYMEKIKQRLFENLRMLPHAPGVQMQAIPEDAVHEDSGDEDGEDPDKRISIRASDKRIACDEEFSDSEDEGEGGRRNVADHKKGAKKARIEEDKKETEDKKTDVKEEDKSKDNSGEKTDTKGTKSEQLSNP

The cases that follow already have their IC50 on record.
{"compound": "CC1(C)Cc2ccccc2C2=C/C(=N/O)C(=O)N21 [AG-1]", "assay_result": "> 1000 µM"}
{"compound": "NNC(=O)c1ccc(Cn2cc(Br)cn2)cc1 [AK-21]", "assay_result": "202 µM"}

Note: attention shifts to another entry.
Considering NNC(=O)c1ccc(COc2ccccc2Cl)cc1 [AK-14] , its IC50 with HDAC2 (Homo sapiens) was recorded as > 1000 µM

----------
# test_system: HDAC6 (Homo sapiens)
# Construct: purchased Sigma Aldrich or Reaction Biology Corporation
# experiment_summary: In vitro enzymatic assay HDAC6 (Fluor de Lys)
# Format: biochemical
# measurement_parameters: 100 µM; mean ± SD (n=3)
Catalogue of compounds with associated HDAC6 % of inhibition at 100 µM
Record the value in %, omitting the unit from your answer.

{"compound": "Cn1cc(Br)c(C(=O)NN)n1", "HDAC6 % of inhibition at 100 µM [%]": 0.1}
{"compound": "CCOc1ccc(OCc2cccc(C(=O)NN)c2)cc1", "HDAC6 % of inhibition at 100 µM [%]": 35.5}
{"compound": "C=CCn1c2ccccc2c2nnc(SC(CC)C(=O)Nc3ccc(S(N)(=O)=O)cc3)nc21 (centres unmarked)", "HDAC6 % of inhibition at 100 µM [%]": 16.3}
{"compound": "NNC(=O)c1cccc(COc2ccccc2Br)c1", "HDAC6 % of inhibition at 100 µM [%]": 25.4}

Reported HDAC6 (Homo sapiens) HDAC6 % of inhibition at 100 µM for item NNC(=O)c1cccc(COc2cc(Cl)ccc2Cl)c1 was 15.3
